Source listed as PubChem BioAssay (NCI).

Test system: MALME-3M melanoma
Assay: NCI-60 one-dose screen, 48 h
Study conditions: 10 µM unless noted
The panel holds about 83,000 compounds, 20% with a hit somewhere; the sample as a whole holds those more often. The source made the active and inactive calls. How the source made its calls: active means growth percent below 10; inactive means the rest.
Labels: active, inactive

compound=O=c1oc2ccc(Cl)cc2c(=O)n1-c1ccc(Cl)cc1F qualitative_label=active
compound=Nc1ccc(-c2nc3cc(Oc4ccc(Oc5ccc6[nH]c(-c7ccc(N)cc7)nc6c5)cc4)ccc3[nH]2)cc1 qualitative_label=inactive
compound=CNCCNc1nc2ccccc2c2c(=O)c3cccc(OC)c3sc12 qualitative_label=inactive
compound=CC1=C(C(=O)OCC2CCN(C(=O)OC(C)(C)C)CC2)[C@H](c2cccc(Br)c2)C2=C(CC(C)(C)CC2=O)N1 qualitative_label=inactive
compound=CCOC(=O)c1cc2c(n1Cc1cc(OC)cc(OC)c1)-c1oncc1CCC2 qualitative_label=active
compound=CC/C=C\C[C@H](O)C/C=C1/C(=O)C=C[C@@H]1C/C=C\CCCC(=O)OCCS(=O)(=O)c1ccccc1 qualitative_label=inactive
compound=O=C(Nc1ccc(C23CC4CC(CC(c5ccccc5)(C4)C2)C3)cc1)c1cccs1 qualitative_label=inactive
compound=COc1c(B(O)O)cccc1-c1nc2ccc3n[nH]c(F)c3c2c2c1CCCC2 qualitative_label=inactive
compound=N#CC(C#N)=Cc1c(-c2ccccc2)[nH]c2ccccc12 qualitative_label=inactive
compound=COC(=O)/C(CCC=C(C)C)=C1\[C@@H](OC(C)=O)C[C@@]2(C)[C@H]1C[C@@H](O)[C@H]1[C@@]3(C)CC[C@H](NC(=O)c4cnccn4)[C@@H](C)[C@@H]3CC[C@@]12C qualitative_label=inactive
compound=COc1cccc(/C=C/C(=O)c2c(C)nc3ccccc3c2/C=C/c2ccccc2)c1OC qualitative_label=inactive
compound=CCOC(=O)c1sc(-c2ccc(OS(=O)(=O)c3cccs3)c(C=O)c2)nc1C qualitative_label=active
compound=CCOC(=O)C1(Cc2ccccc2)CCN(Cc2cccc(OC)c2O)CC1 qualitative_label=inactive
compound=Cc1ccc(F)cc1NC(=O)c1cc(Cl)ccc1Nc1ccccc1 qualitative_label=inactive
compound="COc1ccc(-n2c(C(O)c3ccccc3)n[nH]c2=S)cc1 (centres undefined)" qualitative_label=inactive
compound=COc1ccc(-c2nc(-c3ccccc3)c(-c3ccccc3)[nH]2)cc1OC1CCCCC1 qualitative_label=inactive
compound="O=C(O)CCCN1C(=O)C2C3CCC(C3)C2C1=O (centres undefined)" qualitative_label=inactive
compound="CCN1C(=O)N(CC)C2C1NN=c1s/c(=C3\\C(=O)N(C(C)C)c4ccccc43)c(=O)n12 (centres undefined)" qualitative_label=inactive
compound=CN(C)c1ccc(/C=C/c2ccnc3c(O)cccc23)cc1 qualitative_label=active
compound=Cc1cccc2c(=O)c3c(sc12)c(NCCCNCCO)nc1ccccc13 qualitative_label=inactive
compound=CNCCNc1nc2ccccc2c2c(=O)c3cc(OC)ccc3sc12 qualitative_label=inactive
compound="C1=CC2(C=C1)OC21CCC2(C=CC3(C2)OC3C2CCCCC2)CC1 (centres undefined)" qualitative_label=inactive
compound=COC(=O)/C(=C\c1c(C)[nH]c2ccccc12)S(=O)(=O)c1ccccc1 qualitative_label=inactive
compound=NCCCNc1nc2ccccc2c2c(=O)c3cc(F)ccc3sc12 qualitative_label=inactive
compound=COc1ccc2oc(=O)cc(Cn3cc(Cn4cnc5c4c(=O)n(C)c(=O)n5C)nn3)c2c1 qualitative_label=inactive
compound="OCCNc1nc(Nc2ccc(C3=NN(c4cc(Cl)cc(Cl)c4)C(c4ccc(C(F)(F)F)cc4)C3)cc2)nc(N2CCOCC2)n1 (centres undefined)" qualitative_label=inactive
compound=Cc1cccc(NC(=O)c2sc3nc4c(cc3c2N)CCCC4)c1C qualitative_label=inactive
compound=C#CCn1cc(C=C2C(=O)N(C)C(=O)N(C)C2=O)c2cc(Cl)ccc21 qualitative_label=inactive
compound=CC(C)C[C@H](C(=O)N[C@@H](C)C(N)=O)N1CC=CCN(O)S1(=O)=O qualitative_label=inactive
compound="CN1C(=O)N(C)C2C1NN=c1s/c(=C\\c3ccc([N+](=O)[O-])cc3)c(=O)n12 (centres undefined)" qualitative_label=inactive
compound=CC1=C(C(=O)OCC2CCN(C(=O)OC(C)(C)C)CC2)[C@H](c2cccc(C#N)c2)C2=C(CC(C)(C)CC2=O)N1 qualitative_label=inactive
compound=COc1ccc(Nc2nc(N/N=C/c3ccc(O)cc3)nc(Nc3ccc([N+](=O)[O-])cc3)n2)cc1 qualitative_label=inactive
compound=O=C(Nc1ccc(Br)cc1F)c1cc(I)ccc1O qualitative_label=active
compound="NC(CCc1nc2ccccc2c(=O)[nH]1)C(=O)O (centres undefined)" qualitative_label=inactive
compound=COc1cc2nc(-c3cccc4cccnc34)nc(NC3CCN(Cc4ccccc4)CC3)c2cc1OC qualitative_label=active
compound=Cc1sc2ncnc(Sc3nc4ccccc4[nH]3)c2c1C qualitative_label=active
compound=O=Cc1c(OCc2cnnn2CC(=O)Nc2ccc(Cl)cc2)ccc2ccccc12 qualitative_label=inactive
compound=O=C(Cn1cc(COc2ncnc3c2cnn3-c2ccccc2)nn1)Nc1cccc2ccccc12 qualitative_label=inactive
compound=O=C(Nc1ccc(N2CCNCC2)cn1)c1[nH]ncc1Nc1ncnc2sccc12 qualitative_label=active
